Measured LD50 by item
# Test system: fibroblast cells (3T6)
# reportedConditions: cell numbers after 24 hrs exposure, lactate dehydrogenase assay kit; mean ± SE, number of replications in parentheses
quantityKind: LD50

compound=[Cl-].c1c2c3c(c4[o+]c5c6c7c(cc5cc14)CCCN7CCC6)CCCN3CCC2 assaysystem="fibroblast cells (3T6)" quantitykind=LD50 recordedvalue="19 ± 2.7 (22) μM"
compound=FC(F)(F)C1=c2cc3c4c(c2Oc2c1cc1c5c2CCCN5CCC1)CCC[N+]=4CCC3 assaysystem="fibroblast cells (3T6)" quantitykind=LD50 recordedvalue="5.99 ± 2.6 (4) μM"
compound=CCc1c2ccc(N(CC)CC)cc2[o+]c2cc(N(CC)CC)ccc12.[Cl-] assaysystem="fibroblast cells (3T6)" quantitykind=LD50 recordedvalue="17 ± 3 (10) μM"
compound="Cc1cc(N(C)C)cc2[s+]c3cc(N(C)C)cc(C)c3nc12 [DMMTC, reference compound]" assaysystem="fibroblast cells (3T6)" quantitykind=LD50 recordedvalue="2.7 ± 1.2 (6) μM"
compound=CC1(C)CCN2CCC(C)(C)c3c4c(cc1c32)C=c1cc2c3c(c1O4)C(C)(C)CC[N+]=3CCC2(C)C assaysystem="fibroblast cells (3T6)" quantitykind=LD50 recordedvalue="21 ± 8 (7) μM"
compound=CN(C)c1ccc2nc3ccc(=[N+](C)C)cc-3[nH]c2c1 assaysystem="fibroblast cells (3T6)" quantitykind=LD50 recordedvalue="136 ± 19.3 (4) μM"
compound=Cl.Cl.c1cc2c(cc1N1CCCCC1)Oc1cc(N3CCCCC3)ccc1C2 assaysystem="fibroblast cells (3T6)" quantitykind=LD50 recordedvalue="44 ± 26 (8) μM"
compound=CCN(CC)c1cc2oc3cc(N(CC)CC)cc4oc5cc(=[N+](CC)CC)cc6oc(c1)c2c(c34)c65 assaysystem="fibroblast cells (3T6)" quantitykind=LD50 recordedvalue="8 ± 4 (6) μM"
compound=CN(C)c1ccc2cc3ccc(N(C)C)cc3[s+]c2c1.[Cl-].[Cl-].[Cl-].[Zn+2] assaysystem="fibroblast cells (3T6)" quantitykind=LD50 recordedvalue="22 ± 8.6 (3) μM"
compound="O=[N+]([O-])[O-].c1cc2cc3ccc(N4CCCC4)cc3[o+]c2cc1N1CCCC1 [Compound AH, 3,6-Bis-pyrrolidino-xanthylium nitrate]" assaysystem="fibroblast cells (3T6)" quantitykind=LD50 recordedvalue="121 ± 52 (12) μM"
